target: T1, biotinylated hBLyS-ECD (human, UniProt Q9Y275 134-285, biotinylated with Biotin-X-X-NHS (molar ratio 7:1); sites not stated); assay: competition ELISA; competitor 97A3C2H4
T1 construct: also called biotinylated immunogen; biotinylated hBLvS-ECD
T1 sequence (Q9Y275 134-285): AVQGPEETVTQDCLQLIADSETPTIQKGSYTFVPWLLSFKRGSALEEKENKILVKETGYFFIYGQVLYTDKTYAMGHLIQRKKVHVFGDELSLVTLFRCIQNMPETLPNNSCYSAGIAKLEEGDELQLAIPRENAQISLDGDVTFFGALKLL
parameter_measured: inhibitory rate (%)

binder	numeric_value
35E6F7C3 (antibody, V domains shown, Mouse hybridoma antibody purified on Protein G) VH: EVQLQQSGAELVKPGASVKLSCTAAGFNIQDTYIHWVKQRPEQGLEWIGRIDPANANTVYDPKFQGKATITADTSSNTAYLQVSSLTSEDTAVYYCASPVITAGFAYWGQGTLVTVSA VL: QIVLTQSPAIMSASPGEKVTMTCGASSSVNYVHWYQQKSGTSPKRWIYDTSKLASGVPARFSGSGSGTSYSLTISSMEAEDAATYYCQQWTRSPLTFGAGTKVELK	26
